- Study System: T1, IL-10R1-Fc (UniProt Q13651 22-235, limits assumed)
- T1 sequence (looked up): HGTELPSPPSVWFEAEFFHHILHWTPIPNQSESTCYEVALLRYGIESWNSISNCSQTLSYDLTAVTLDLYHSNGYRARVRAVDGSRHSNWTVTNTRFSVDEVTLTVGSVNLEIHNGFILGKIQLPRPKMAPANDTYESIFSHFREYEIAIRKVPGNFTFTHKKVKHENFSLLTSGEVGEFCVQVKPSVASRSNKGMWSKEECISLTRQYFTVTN
- Test Protocol: ELISA, IL-10R1-Fc coated
Experimental Readout: Binding recovery (>60%)

- Binder: "IL-10 Met39Cys-R4-1 (ligand, human, UniProt P22301 19-178, looked up, R4-1 on Cys 39, mature) SPGQGTQSENSCTHFPGNLPNMLRDLRDAFSRVKTFFQCKDQLDNLLLKESLLEDFKGYLGCQALSEMIQFYLEEVMPQAENQDPDIKAHVNSLGENLKTLRLRLRRCHRFLPCENKSKAVEQVKNAFNKLQEKGIYKAMSEFDIFINYIEAYMTMKIRN"
  Result: 88
- Binder: "IL-10 Lys130Cys-R4-7 (ligand, human, UniProt P22301 19-178, looked up, R4-7 on Cys 130, mature) SPGQGTQSENSCTHFPGNLPNMLRDLRDAFSRVKTFFQMKDQLDNLLLKESLLEDFKGYLGCQALSEMIQFYLEEVMPQAENQDPDIKAHVNSLGENLKTLRLRLRRCHRFLPCENKSKAVEQVKNAFNCLQEKGIYKAMSEFDIFINYIEAYMTMKIRN"
  Result: 100
- Binder: "IL-10 Gly135Cys-R4-1 (ligand, human, UniProt P22301 19-178, looked up, R4-1 on Cys 135, mature) SPGQGTQSENSCTHFPGNLPNMLRDLRDAFSRVKTFFQMKDQLDNLLLKESLLEDFKGYLGCQALSEMIQFYLEEVMPQAENQDPDIKAHVNSLGENLKTLRLRLRRCHRFLPCENKSKAVEQVKNAFNKLQEKCIYKAMSEFDIFINYIEAYMTMKIRN"
  Result: 99.5
- Binder: "IL-10 Tyr137Cys-R4-4 (ligand, human, UniProt P22301 19-178, looked up, R4-4 on Cys 137, mature) SPGQGTQSENSCTHFPGNLPNMLRDLRDAFSRVKTFFQMKDQLDNLLLKESLLEDFKGYLGCQALSEMIQFYLEEVMPQAENQDPDIKAHVNSLGENLKTLRLRLRRCHRFLPCENKSKAVEQVKNAFNKLQEKGICKAMSEFDIFINYIEAYMTMKIRN"
  Result: 99.1
- Binder: "IL-10 Lys34Cys-R4-7 (ligand, human, UniProt P22301 19-178, looked up, R4-7 on Cys 34, mature) SPGQGTQSENSCTHFPGNLPNMLRDLRDAFSRVCTFFQMKDQLDNLLLKESLLEDFKGYLGCQALSEMIQFYLEEVMPQAENQDPDIKAHVNSLGENLKTLRLRLRRCHRFLPCENKSKAVEQVKNAFNKLQEKGIYKAMSEFDIFINYIEAYMTMKIRN"
  Result: 99.6
